Biological target: T1, biotinylated recombinant human trimeric ARG2 enzyme (Avi-huARG2-His10) (human, UniProt P78540 23-354, biotinylated)
T1 construct: also called avi-Arg2-His10; bio-ARG2
T1 chain: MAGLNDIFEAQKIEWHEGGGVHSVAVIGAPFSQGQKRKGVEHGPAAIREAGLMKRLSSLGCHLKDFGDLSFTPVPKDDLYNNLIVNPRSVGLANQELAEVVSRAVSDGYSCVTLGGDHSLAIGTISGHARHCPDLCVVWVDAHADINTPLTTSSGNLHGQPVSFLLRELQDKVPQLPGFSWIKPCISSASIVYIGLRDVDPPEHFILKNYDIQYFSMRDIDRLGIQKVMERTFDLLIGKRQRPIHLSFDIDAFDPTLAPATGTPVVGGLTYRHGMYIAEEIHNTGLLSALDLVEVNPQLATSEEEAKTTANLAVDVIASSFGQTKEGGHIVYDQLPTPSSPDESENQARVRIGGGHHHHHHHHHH
Experiment: BLI (OctetRED), biotinylated ARG2 on streptavidin, Fab as analyte
measurement-kind: kon
Returns: string containing the number followed by the unit.

Documented kon of C0021065 Fab (Fab, V domains shown, Human Fab) VH: EVQLLESGGGLVQPGGSLRLSCAASGFTFSSYAMSWVRQAPGKGPEWVSAISGFSPYYADSVKGRFTISRDNSRNTLYLQMNSLRAEDTAVYYCARLRADLGLYMDLWGRGTLVTVSS VL: QSVLTQPPSVSAAPGQKVTISCSGSSSNIGNHYVSWYQQLPGTAPKLLIYDTDHMASGIPDRFSGSKSGTSATLGITGLQTGDEADYYCGTWDSSLSALVFGGGTKLTVL : 409000 M⁻¹ s⁻¹

Documented kon of C0021092 Fab (Fab, V domains shown, Human Fab) VH: EVQLLESGGGLVQPGGSLRLSCAASGFTFSRYAMSWVRQAPGKGLEWVSAHTHSPGSTYYADSVKGRFTISRDNSKNTLYLQMNSLRAEDTAVYYCARLRADLGLYMDLWGRGTLVTVSS VL: QSVLTQPPSVSAAPGQKVTISCSGSSSNIGNHYVSWYQQLPGTAPKLLIYNSVARPSGIPDRFSGSKSGTSATLGITGLQTGDEADYYCGTWDSSLSALVFGGGTKLTVL : 280000 M⁻¹ s⁻¹

Documented kon of C0021118 Fab (Fab, V domains shown, Human Fab) VH: EVQLLESGGGLVQPGGSLRLSCAASGFTFSSYAMSWVRQAPGKGLEWVSASLTNPGSTYYADSVKGRFTISRDNSKNTLYLQMNSLRAEDTAVYYCARLRADLGLYMDLWGRGTLVTVSS VL: QSVLTQPPSVSAAPGQKVTISCSGSSSNIGNHYVSWYQQLPGTAPKLLIYDNSERPSGIPDRFSGSKSGTSATLGITGLQTGDEADYYCATYDTNLSALVFGGGTKLTVL : 139000 M⁻¹ s⁻¹

Documented kon of C0021061 Fab (Fab, V domains shown, Human Fab) VH: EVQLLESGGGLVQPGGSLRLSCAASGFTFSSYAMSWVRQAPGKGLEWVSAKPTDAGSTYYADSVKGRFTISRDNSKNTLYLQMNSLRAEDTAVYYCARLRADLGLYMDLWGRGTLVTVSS VL: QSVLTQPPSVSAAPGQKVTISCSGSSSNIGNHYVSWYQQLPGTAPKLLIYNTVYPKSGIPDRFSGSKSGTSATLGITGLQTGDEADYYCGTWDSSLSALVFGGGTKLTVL : 271000 M⁻¹ s⁻¹

Documented kon of C0021097 Fab (Fab, V domains shown, Human Fab) VH: EVQLLESGGGLVQPGGSLRLSCAASGFTFSSYAMSWVRQAPGKGLEWVSAISYHPGSTYYADSVKGRFTISRDNSKNTLYLQMNSLRAEDTAVYYCARLRADLGLYMDLWGRGTLVTVSS VL: QSVLTQPPSVSAAPGQKVTISCSGSSSNIGNHYVSWYQQLPGTAPKLLIYNTFARPSGIPDRFSGSKSGTSATLGITGLQTGDEADYYCGTWDSSLSALVFGGGTKLTVL : 295000 M⁻¹ s⁻¹

Documented kon of C0021021 Fab (Fab, V domains shown, Human Fab) VH: EVQLLESGGGLVQPGGSLRLSCAASGFTFSSYAMSWVRQAPGKGLEWVSSILFSPGSTYYADSVKGRFTISRDNSKNTLYLQMNSLRAEDTAVYYCARLRADLGLYMDLWGRGTLVTVSS VL: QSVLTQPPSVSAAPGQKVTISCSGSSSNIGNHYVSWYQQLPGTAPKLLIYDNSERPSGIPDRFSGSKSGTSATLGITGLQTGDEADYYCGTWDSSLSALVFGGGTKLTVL : 473000 M⁻¹ s⁻¹

Documented kon of C0021142 Fab (Fab, V domains shown, Human Fab) VH: EVQLLESGGGLVQPGGSLRLSCAASGFTFSSYAMSWVRQAPGKGLEWVSAHTHSPGSTYYADSVKGRFTISRDNSKNTLYLQMNSLRAEDTAVYYCARLRADLGLYMDLWGRGTLVTVSS VL: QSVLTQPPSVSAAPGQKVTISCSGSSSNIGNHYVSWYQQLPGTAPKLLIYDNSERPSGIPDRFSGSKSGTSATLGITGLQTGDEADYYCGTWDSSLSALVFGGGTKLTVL : 399000 M⁻¹ s⁻¹

Documented kon of C0021022 Fab (Fab, V domains shown, Human Fab) VH: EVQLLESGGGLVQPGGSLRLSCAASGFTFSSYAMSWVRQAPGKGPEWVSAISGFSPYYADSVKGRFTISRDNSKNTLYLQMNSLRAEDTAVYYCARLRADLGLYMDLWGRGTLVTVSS VL: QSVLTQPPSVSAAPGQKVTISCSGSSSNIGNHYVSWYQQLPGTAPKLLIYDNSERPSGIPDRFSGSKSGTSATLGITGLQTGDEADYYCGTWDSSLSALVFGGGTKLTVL : 412000 M⁻¹ s⁻¹

Documented kon of C0021101 Fab (Fab, V domains shown, Human Fab) VH: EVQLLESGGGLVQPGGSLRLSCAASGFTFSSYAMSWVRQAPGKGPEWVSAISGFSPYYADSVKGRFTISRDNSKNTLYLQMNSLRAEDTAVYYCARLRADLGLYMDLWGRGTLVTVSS VL: QSVLTQPPSVSAAPGQKVTISCSGSSSNIGNHYVSWYQQLPGTAPKLLIYNNRSPTSGIPDRFSGSKSGTSATLGITGLQTGDEADYYCGTWDSSLSALVFGGGTKLTVL : 314000 M⁻¹ s⁻¹

Documented kon of C0021032 Fab (Fab, V domains shown, Human Fab) VH: EVQLLESGGGLVQPGGSLRLSCAASGFTFSSYAMSWVRQAPGKGLEWVSAYGYGIGSTYYADSVKGRFTISRDNSKNTLYLQMNSLRAEDTAVYYCARLRADLGLYMDLWGRGTLVTVSS VL: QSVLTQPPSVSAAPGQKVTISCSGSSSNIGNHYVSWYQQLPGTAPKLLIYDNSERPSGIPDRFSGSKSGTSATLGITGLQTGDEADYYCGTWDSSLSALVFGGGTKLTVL : 427000 M⁻¹ s⁻¹

Documented kon of C0021139 Fab (Fab, V domains shown, Human Fab; also called LO C0021139 Fab) VH: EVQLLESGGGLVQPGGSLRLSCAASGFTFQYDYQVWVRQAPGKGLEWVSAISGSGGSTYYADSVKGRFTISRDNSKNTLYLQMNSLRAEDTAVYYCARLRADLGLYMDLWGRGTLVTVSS VL: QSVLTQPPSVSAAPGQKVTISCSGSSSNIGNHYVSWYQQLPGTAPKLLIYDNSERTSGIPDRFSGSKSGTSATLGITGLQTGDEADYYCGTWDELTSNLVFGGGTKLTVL : 198000 M⁻¹ s⁻¹
